Ref: patent US11826430B2

Hi there, I'd appreciate the recorded pIC50 for every entry that follows.
Field pIC50 (float): negative decimal logarithm of the concentration in molar.

For `C[C@@H]1Cc2c([nH]c3ccccc23)[C@@H](c2c(F)cc(OCCCCCC(=O)N3CCN(C(=O)c4cc(Cc5n[nH]c(=O)c6ccccc56)ccc4F)CC3)cc2F)N1CC(C)(C)F` on ER Alpha-LBD (GST) (Homo sapiens (Human), UniProt P03372), measured pIC50 was 8.24

Form field pIC50 for item `CC/C(=C(/c1ccc(OCCCOCC(=O)N2CCN(C(=O)c3cc(Cc4n[nH]c(=O)c5ccccc45)ccc3F)CC2)cc1)c1ccc2[nH]ncc2c1)c1ccc(Cl)cc1F` on ER Alpha-LBD (GST) (Homo sapiens (Human), UniProt P03372): 8.47

ER Alpha-LBD (GST) (Homo sapiens (Human), UniProt P03372) data for `CC/C(=C(/c1ccc(OCCCCCC(=O)N2CCN(C(=O)c3cc(Cc4n[nH]c(=O)c5ccccc45)ccc3F)CC2)cc1)c1ccc2[nH]ncc2c1)c1ccc(Cl)cc1F` ; its pIC50: 8.36

* * *

test.readout: pKi
Would you please state pKi, meaning minus log10 of the concentration in mol/L, as a bare number?

# `CC/C(=C(/c1ccc(OCCCOCCN2CCN(C(=O)c3cc(Cc4n[nH]c(=O)c5ccccc45)ccc3F)CC2)cc1)c1ccc2[nH]ncc2c1)c1ccc(Cl)cc1F` with ER Alpha-LBD (GST) (Homo sapiens (Human)): pKi is 7.46

* * *

# Tested on: HT-29 cells
# protocol.details: Cell proliferation assay, CellTiter Glo
# Format: cell-based
# settings: Homo sapiens, HT-29, 72 h; cell growth inhibition, three days of treatment
pIC50: −log10 of the molar value.
test.readout: pIC50

With HT-29 cells as the test system, `Cn1ncnc1[C@@H]1c2n[nH]c(=O)c3cc(F)cc(c23)N[C@H]1c1ccc(OC[C@](C)(O)C(=O)Nc2ccc(C#N)c(C(F)(F)F)c2)cc1` showed pIC50 of < 5.00

Entry `CC1(C)C(=O)N(c2ccc([N+](=O)[O-])c(C(F)(F)F)c2)C(=O)N1CCNC(=O)c1cc(Cc2n[nH]c(=O)c3ccccc23)ccc1F` under HT-29 cells had pIC50 of 5.00

Summary line: `C[C@](O)(CS(=O)(=O)C1CCN(C(=O)c2cc(Cc3n[nH]c(=O)c4ccccc34)ccc2F)CC1)C(=O)Nc1ccc(C#N)c(C(F)(F)F)c1` , HT-29 cells, reported pIC50 = < 4.52

* * *

Please go through the items and note down their IC50.
# Test system: HT-29 cells
# protocol.details: Cell proliferation assay, CellTiter Glo
# Format: cell-based
# settings: Homo sapiens, HT-29, 72 h; cell growth inhibition, three days of treatment
Reply numerically in µM, unit not repeated.

What the record says about CC1(C)C(=O)N(c2ccc(C#N)c(C(F)(F)F)c2)C(=O)N1CCNC(=O)c1cc(Cc2n[nH]c(=O)c3ccccc23)ccc1F [Compound 1.8] : IC50 is 17

IC50 reading for CC1(C)C(=O)N(c2ccc(C#N)c(C(F)(F)F)c2)C(=S)N1CCNC(=O)c1cc(Cc2n[nH]c(=O)c3ccccc23)ccc1F [Compound 1.6] : 10

The compound C[C@](O)(COC1CCN(C(=O)c2cc(Cc3n[nH]c(=O)c4ccccc34)ccc2F)CC1)C(=O)Nc1ccc(C#N)c(C(F)(F)F)c1 [Compound 1.5] showed IC50 equal to 20
